Attribution: ChEMBL document CHEMBL5046275

# testedSystem: CDK2/Cyclin A2 (Homo sapiens)
# protocolDescription: Inhibition of full length N-terminal GST tagged human CDK2(1 to 298 residues)/CyclinA2 (1 to 432 residues) expressed in baculovirus expression system using FL peptide as substrate preincubated for 30 mins followed by substrate addition further incubated for 120 mins by EZ reader method
metric: IC50 (nM)

Worked cases, answers included:
[
  {
    "testSmiles": "CN1CCC([C@@](C)(O)c2ccc3cnc(Nc4ccc(C#N)cc4F)cc3n2)CC1",
    "testedSystem": "CDK2/Cyclin A2 (Homo sapiens)",
    "units": "nM",
    "IC50": 33
  },
  {
    "testSmiles": "CN1CCC(N(CC(=O)O)c2ccc3cnc(Nc4ccc(-n5ccc(CO)n5)cc4F)cc3n2)CC1",
    "testedSystem": "CDK2/Cyclin A2 (Homo sapiens)",
    "units": "nM",
    "IC50": 444
  },
  {
    "testSmiles": "CC(C)c1cc(Nc2cc3nc([C@](C)(O)C4CCN(C)CC4)ccc3cn2)c(F)cc1C#N",
    "testedSystem": "CDK2/Cyclin A2 (Homo sapiens)",
    "units": "nM",
    "IC50": 156
  },
  {
    "testSmiles": "CN1CCC(Oc2ccc3cnc(Nc4ccc(-n5ccc(CO)n5)cc4F)cc3n2)CC1",
    "testedSystem": "CDK2/Cyclin A2 (Homo sapiens)",
    "units": "nM",
    "IC50": 132
  }
]

I = CN1CCC([C@@](C)(O)c2ccc3cnc(Nc4cc(C(N)=O)ncc4F)cc3n2)CC1
II = CN1CCC([C@@](C)(O)c2ccc3cnc(Nc4ccccc4)cc3n2)CC1
Exam item: Please indicate which entry, I or II , has the lower recorded IC50 value. Write down the label attached to your selection.
Marked response: II
(II: 18 nM, I: 136 nM)

a = OCc1ccn(-c2ccc(Nc3cc4nc(CC5CCNCC5)ccc4cn3)c(F)c2)n1
b = C[C@H](c1ccc2cnc(Nc3ccc(-n4ccc(CO)n4)cc3F)cc2n1)C1CCN(C)CC1
c = CN1CCC([C@@](C)(O)c2ccc3cnc(Nc4cc(N5CCOCC5)ccc4F)cc3n2)CC1
Exam item: Task field, ranking: reported IC50, descending order. Rank them, then answer with their labels in that order.
Marked response: a, b, c
